test system: A549; assay: relative viability (nuclei count vs DMSO), 5 days (fraction); higher = more cells survive; conditions: first compound 1 µM
The following compounds are shown together with reported relative viability values.
Number only, no unit.

Here are 3 compounds together with their reported answers.
CCN(CC)CCCCNc1ncc2cc(-c3cc(OC)cc(OC)c3)c(NC(=O)NC(C)(C)C)nc2n1 + O=C(c1cc(Cc2n[nH]c(=O)c3ccccc23)ccc1F)N1CCN(C(=O)C2CC2)CC1 [Olaparib] (partner 8 µM); 0.349
O=c1cc(N2CCOCC2)oc2c(-c3cccc4c3sc3ccccc34)cccc12 + CS(=O)(=O)CCNCc1ccc(-c2ccc3ncnc(Nc4ccc(OCc5cccc(F)c5)c(Cl)c4)c3c2)o1 [Lapatinib] (partner 2 µM); 0.968
CCN(CC)CCCCNc1ncc2cc(-c3cc(OC)cc(OC)c3)c(NC(=O)NC(C)(C)C)nc2n1 + COc1cc2c(Oc3ccc(NC(=O)C4(C(=O)Nc5ccc(F)cc5)CC4)cc3F)ccnc2cc1OCCCN1CCOCC1 [Foretinib] (partner 0.25 µM); 0.758

Shift focus to the following entry.
// query Lab note: need relative viability for O=c1cc(N2CCOCC2)oc2c(-c3cccc4c3sc3ccccc34)cccc12 + O=C(c1cc(Cc2n[nH]c(=O)c3ccccc23)ccc1F)N1CCN(C(=O)C2CC2)CC1 [Olaparib] (partner 8 µM) on A549, anyone have it?
// result 0.268

FYI, the data here is from the supplement of paper PMC10307832.
